- assay-notes: physchem
- study-conditions: 2,2,2-trifluoroethanol, organic solvent or mixture, Solubility, solvent: 2,2,2-trifluoroethanol
Measured solubility values are reported for all entries that follow.
Only the number, expressed in µg/mL, is required.

• NCCc1c[nH]c(=S)n1[C@H]1COc2c(F)cc(F)cc2C1.O=C(O)CC(=O)O [malonate salt] = 1000

Task item: Look up and report measured solubility for this entry: Cc1ccc(S(=O)(=O)O)cc1.NCCc1c[nH]c(=S)n1[C@H]1COc2c(F)cc(F)cc2C1 [tosylate salt]
Reply: 4000

====

- assay-notes: physchem
- study-conditions: methyl ethyl ketone, organic solvent or mixture, Solubility, solvent: methyl ethyl ketone
value-type: solubility

Task item: Return value of solubility for input Cc1ccc(S(=O)(=O)O)cc1.NCCc1c[nH]c(=S)n1[C@H]1COc2c(F)cc(F)cc2C1 [tosylate salt] , no commentary.
Reply: 1000 µg/mL

Task item: Look up and report measured solubility for this entry: NCCc1c[nH]c(=S)n1[C@H]1COc2c(F)cc(F)cc2C1.O=C(O)CC(=O)O [malonate salt]
Reply: < 1000 µg/mL

Task item: Name the recorded solubility of the item NCCc1c[nH]c(=S)n1[C@H]1COc2c(F)cc(F)cc2C1.O=C(O)C(O)C(O)C(=O)O [L-tartrate salt] in your answer.
Reply: < 1000 µg/mL

Task item: State its solubility: CC(=O)O.NCCc1c[nH]c(=S)n1[C@H]1COc2c(F)cc(F)cc2C1 [acetate salt]
Reply: < 1000 µg/mL

Task item: Name the recorded solubility of the molecule listed here: NCCc1c[nH]c(=S)n1[C@H]1COc2c(F)cc(F)cc2C1.O=C(O)/C=C/C(=O)O [fumarate salt]
Reply: < 1000 µg/mL
